Data provenance is patent US6787532B2.

assay: Solubility in water with surfactants and co-solvating agents; type: physicochemical; conditions: water, aqueous with cosolvent or surfactant or cyclodextrin, in water, Sodium cholate 20% w/w; read-out: Solubility
TEST_READOUT: solubility (µg/mL)
Quick reminder: number only, in µg/mL, skip the unit.

Look up solubility: CCC(=O)O[C@]1(C(=O)SCF)[C@H](C)C[C@H]2[C@@H]3C[C@H](F)C4=CC(=O)C=C[C@]4(C)[C@@]3(F)[C@@H](O)C[C@@]21C [Fluticasone propionate, reference compound] 140

---

Readings of solubility for the listed molecules
test: Solubility in water with surfactants and co-solvating agents; assay type: physicochemical; conditions: water, in water, no surfactant; read-out: Solubility

[
  {
    "MOLECULE": "CCC(=O)O[C@]1(C(=O)SCF)[C@H](C)C[C@H]2[C@@H]3C[C@H](F)C4=CC(=O)C=C[C@]4(C)[C@@]3(F)[C@@H](O)C[C@@]21C [Fluticasone propionate, reference compound]",
    "solubility": "< 1 µg/mL"
  }
]

Look up solubility: C[C@@H]1C[C@H]2[C@@H]3C[C@H](F)C4=CC(=O)C=C[C@]4(C)[C@@]3(F)[C@@H](O)C[C@]2(C)[C@@]1(OC(=O)c1ccco1)C(=O)SCF < 1 µg/mL

---

assay: Solubility in water with surfactants and co-solvating agents; format: physicochemical; conditions: water, aqueous with cosolvent or surfactant or cyclodextrin, in water, Tyloxapol 5% w/w and Dextrose 4% w/w; read-out: Solubility
TEST_READOUT: solubility (µg/mL)
Quick reminder: number only, in µg/mL, skip the unit.

Look up solubility: C[C@@H]1C[C@H]2[C@@H]3C[C@H](F)C4=CC(=O)C=C[C@]4(C)[C@@]3(F)[C@@H](O)C[C@]2(C)[C@@]1(OC(=O)c1ccco1)C(=O)SCF 526

---

experiment: Solubility in water with surfactants and co-solvating agents; type: physicochemical; settings: water, aqueous with cosolvent or surfactant or cyclodextrin, in water, Triton X-100 0.5% w/w; read-out: Solubility
TEST_READOUT: solubility (µg/mL)
Quick reminder: number only, in µg/mL, skip the unit.

Look up solubility: C[C@@H]1C[C@H]2[C@@H]3C[C@H](F)C4=CC(=O)C=C[C@]4(C)[C@@]3(F)[C@@H](O)C[C@]2(C)[C@@]1(OC(=O)c1ccco1)C(=O)SCF 18

---

Readings of solubility for the listed molecules
assay: Solubility in water with surfactants and co-solvating agents; type: physicochemical; details: water, aqueous with cosolvent or surfactant or cyclodextrin, in water, Tyloxapol 5% w/w; read-out: Solubility
Quick reminder: number only, in µg/mL, skip the unit.

[
  {
    "MOLECULE": "C[C@@H]1C[C@H]2[C@@H]3C[C@H](F)C4=CC(=O)C=C[C@]4(C)[C@@]3(F)[C@@H](O)C[C@]2(C)[C@@]1(OC(=O)c1ccco1)C(=O)SCF",
    "READOUT_UNITS": "µg/mL",
    "solubility": 307
  }
]

Shift focus to the following entry.
Look up solubility: CCC(=O)O[C@]1(C(=O)SCF)[C@H](C)C[C@H]2[C@@H]3C[C@H](F)C4=CC(=O)C=C[C@]4(C)[C@@]3(F)[C@@H](O)C[C@@]21C [Fluticasone propionate, reference compound] 133

---

molecular target: glucocorticoid receptor (GR) (Homo sapiens); assay: Transrepression (NFκB): A549 cells with firefly luciferase NFκB reporter, TNFα stimulated; assay type: cell-based; settings: 0.5 ng/ml TNFα, read-out: Transrepression (NFκB) ED50
Sequence (P04150 whole entry): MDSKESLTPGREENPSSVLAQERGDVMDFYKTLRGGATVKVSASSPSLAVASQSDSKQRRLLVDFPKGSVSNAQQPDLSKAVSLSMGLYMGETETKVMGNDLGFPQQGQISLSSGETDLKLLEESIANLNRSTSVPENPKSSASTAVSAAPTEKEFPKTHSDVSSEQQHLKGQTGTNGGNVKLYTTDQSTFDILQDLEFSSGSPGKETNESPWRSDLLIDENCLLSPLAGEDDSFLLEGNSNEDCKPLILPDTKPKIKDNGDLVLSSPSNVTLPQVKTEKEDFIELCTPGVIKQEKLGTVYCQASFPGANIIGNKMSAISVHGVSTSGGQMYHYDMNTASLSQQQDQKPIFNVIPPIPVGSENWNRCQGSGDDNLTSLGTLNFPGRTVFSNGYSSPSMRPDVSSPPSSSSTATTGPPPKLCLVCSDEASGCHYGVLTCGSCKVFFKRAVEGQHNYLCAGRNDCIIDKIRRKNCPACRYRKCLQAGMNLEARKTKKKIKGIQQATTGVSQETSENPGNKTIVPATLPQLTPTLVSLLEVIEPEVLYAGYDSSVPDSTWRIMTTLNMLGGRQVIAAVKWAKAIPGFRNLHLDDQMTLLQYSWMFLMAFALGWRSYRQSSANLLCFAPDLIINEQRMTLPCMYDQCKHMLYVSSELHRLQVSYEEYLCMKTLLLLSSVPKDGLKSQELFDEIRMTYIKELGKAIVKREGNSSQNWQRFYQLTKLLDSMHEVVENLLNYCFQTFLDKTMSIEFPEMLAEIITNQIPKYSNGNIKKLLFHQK
TEST_READOUT: EC50

Look up EC50: C[C@@H]1CC2C3C[C@H](F)C4=CC(=O)C=C[C@]4(C)[C@@]3(F)[C@@H](O)C[C@]2(C)[C@@]1(OC(=O)c1ccco1)C(=O)O (stereo partly shown) [Metabolite (X)] > 1000 nM

---

test: Solubility in water with surfactants and co-solvating agents; type: physicochemical; conditions: water, aqueous with cosolvent or surfactant or cyclodextrin, in water, Triton X-100 5% w/w; read-out: Solubility
TEST_READOUT: solubility (µg/mL)
Quick reminder: number only, in µg/mL, skip the unit.

Look up solubility: C[C@@H]1C[C@H]2[C@@H]3C[C@H](F)C4=CC(=O)C=C[C@]4(C)[C@@]3(F)[C@@H](O)C[C@]2(C)[C@@]1(OC(=O)c1ccco1)C(=O)SCF [Compound of Formula (I)] 549

---

test: Pharmacokinetics after intra-tracheal dry powder dosing in the pig; type: in vivo; details: pig, plasma, iv, 1 mg, Pig 1, intra-tracheal dry powder 1 mg; compound (I) calculated with IV half-life
Readings of AUC(0-inf) for the listed compounds
State the value with its unit after it.

[
  {
    "COMPOUND": "C[C@@H]1C[C@H]2[C@@H]3C[C@H](F)C4=CC(=O)C=C[C@]4(C)[C@@]3(F)[C@@H](O)C[C@]2(C)[C@@]1(OC(=O)c1ccco1)C(=O)SCF [Compound of Formula (I)]",
    "AUC(0-inf)": "0.254 ng·h/mL"
  }
]

Shift focus to the following entry.
Look up AUC(0-inf): CCC(=O)O[C@]1(C(=O)SCF)[C@H](C)C[C@H]2[C@@H]3C[C@H](F)C4=CC(=O)C=C[C@]4(C)[C@@]3(F)[C@@H](O)C[C@@]21C [Fluticasone propionate, reference compound] 0.455 ng·h/mL

---

assay: Solubility in water with surfactants and co-solvating agents; format: physicochemical; details: water, aqueous with cosolvent or surfactant or cyclodextrin, in water, Tyloxapol 5% w/w and Propylene glycol 10% w/w; read-out: Solubility
TEST_READOUT: solubility (µg/mL)
Quick reminder: number only, in µg/mL, skip the unit.

Look up solubility: C[C@@H]1C[C@H]2[C@@H]3C[C@H](F)C4=CC(=O)C=C[C@]4(C)[C@@]3(F)[C@@H](O)C[C@]2(C)[C@@]1(OC(=O)c1ccco1)C(=O)SCF 422

---

test: Solubility in water with surfactants and co-solvating agents; type: physicochemical; conditions: water, aqueous with cosolvent or surfactant or cyclodextrin, in water, Tyloxapol 7.5% w/w; read-out: Solubility
TEST_READOUT: solubility (µg/mL)
Quick reminder: number only, in µg/mL, skip the unit.

Look up solubility: C[C@@H]1C[C@H]2[C@@H]3C[C@H](F)C4=CC(=O)C=C[C@]4(C)[C@@]3(F)[C@@H](O)C[C@]2(C)[C@@]1(OC(=O)c1ccco1)C(=O)SCF [Compound of Formula (I)] 576

---

assay: Pharmacokinetics after intravenous and oral dosing in rats; format: in vivo; details: male, Wistar Han, rat, plasma, oral, 0.1 mg/kg, oral 0.1 mg/kg and IV 0.1 mg/kg
TEST_READOUT: bioavailability (%)
Quick reminder: number only, in %, skip the unit.

Look up bioavailability: C[C@@H]1C[C@H]2[C@@H]3C[C@H](F)C4=CC(=O)C=C[C@]4(C)[C@@]3(F)[C@@H](O)C[C@]2(C)[C@@]1(OC(=O)c1ccco1)C(=O)SCF 0.9

---

assay: Solubility in water with surfactants and co-solvating agents; format: physicochemical; conditions: water, aqueous with cosolvent or surfactant or cyclodextrin, in water, Tyloxapol 6% w/w; read-out: Solubility
TEST_READOUT: solubility (µg/mL)
Quick reminder: number only, in µg/mL, skip the unit.

Look up solubility: C[C@@H]1C[C@H]2[C@@H]3C[C@H](F)C4=CC(=O)C=C[C@]4(C)[C@@]3(F)[C@@H](O)C[C@]2(C)[C@@]1(OC(=O)c1ccco1)C(=O)SCF 346

---

experiment: Pharmacokinetics after intra-tracheal dry powder dosing in the pig; type: in vivo; settings: pig, plasma, iv, 1 mg, Pig 2, intra-tracheal dry powder 1 mg; compound (I) calculated with IV half-life
TEST_READOUT: AUC(0-inf) (ng·h/mL)
Quick reminder: number only, in ng·h/mL, skip the unit.

[
  {
    "COMPOUND": "C[C@@H]1C[C@H]2[C@@H]3C[C@H](F)C4=CC(=O)C=C[C@]4(C)[C@@]3(F)[C@@H](O)C[C@]2(C)[C@@]1(OC(=O)c1ccco1)C(=O)SCF",
    "AUC(0-inf) (ng·h/mL)": 0.221
  }
]

Shift focus to the following entry.
Look up AUC(0-inf): CCC(=O)O[C@]1(C(=O)SCF)[C@H](C)C[C@H]2[C@@H]3C[C@H](F)C4=CC(=O)C=C[C@]4(C)[C@@]3(F)[C@@H](O)C[C@@]21C [Fluticasone propionate, reference compound] 0.495

---

assay: Solubility in water with surfactants and co-solvating agents; assay type: physicochemical; settings: 5% Tyloxapol, aqueous with cosolvent or surfactant or cyclodextrin, 5% Tyloxapol, process performed at room temperature; read-out: solubility
TEST_READOUT: solubility (µg/mL)
Quick reminder: number only, in µg/mL, skip the unit.

Look up solubility: CCC(=O)O[C@]1(C(=O)SCF)[C@H](C)C[C@H]2[C@@H]3C[C@H](F)C4=CC(=O)C=C[C@]4(C)[C@@]3(F)[C@@H](O)C[C@@]21C [Fluticasone propionate, reference compound] 87

# repeat for C[C@@H]1C[C@H]2[C@@H]3C[C@H](F)C4=CC(=O)C=C[C@]4(C)[C@@]3(F)[C@@H](O)C[C@]2(C)[C@@]1(OC(=O)c1ccco1)C(=O)SCF 233
